Values from PubChem BioAssay (NCI)

Test system: RXF 393 renal
ASSAY PROTOCOL: NCI tumour cell line growth inhibition, 48 h
Attribute: TGI
ENDPOINT NAME: TGI

1. O=C1C=CC(=O)C(CNc2ccc(C(=O)OCc3ccccc3)cc2)=C1: 8.54 µM
2. Cc1cccc(C)c1N1C(=O)C(=O)C(c2nc3ccccc3s2)/C(=N/NC(=O)NN)C1=O (stereo unspecified): > 100 µM
3. CCN(CC)CCO/N=C1\CC[C@H]2[C@@H]3CCc4cc(OC)ccc4[C@H]3CC[C@]12C: 3.92 µM
4. O=C(CC(C(=O)c1ccco1)c1ccco1)c1ccco1 (stereo unspecified): > 100 µM
5. COc1ccc2c(c1)c(=O)c1c(NCCNCCO)ccc3c(=O)n(CCN(C)C)c(=O)n2c31: 0.266 µM
6. OCc1ccc(N2CCOCC2)cc1Cl: > 100 µM
7. Nc1ccccc1C(=O)C(Br)C(Br)c1ccc2c(c1)OCO2 (stereo unspecified): 49.9 µM
8. COc1ccc(Oc2cnn(C(Br)(Br)C(C)=O)c(=O)c2Br)cc1: 16.8 µM
9. C[C@]12C/C(=C/O)C(=O)C(O)=C1CC[C@@H]1C2CC[C@@]2(C)C1CC[C@@H]2O (stereo partly specified): 36.3 µM
10. CCNc1ncnc2sc(SCc3ccccc3)nc12: > 100 µM
11. Cc1cc(C)nc(NS(=O)(=O)c2ccc(NC(=O)c3cccc4c(NNc5ccc(S(=O)(=O)N=C(N)N)cc5)c5ccccc5nc34)cc2)n1: > 50 µM
12. CCN(CC)c1ccc(/C=C/C2=[N+](C)c3ccccc3C2(C)C)c(C)c1: 2.85 µM
13. CCOC(=O)c1c(SCCN2CCOCC2)n(-c2ccccc2)c(=S)n(-c2ccccc2)c1=O: 33.9 µM
14. COc1cc2nc(-c3ccc(C(F)(F)F)cc3)cc(OCCCN3CCCC3)c2cc1OC: 3.85 µM
15. CC(C)=CCC[C@@H](C)C1=C(O)C(N)=C(C)C(=O)C1=O: > 100 µM
16. C/C(=N\Nc1nc2ccccc2s1)c1ccc2ccccc2n1: 73.3 µM
17. O=C(NCCN1CCNCC1)c1ccc(Nc2nc3ccccc3c3occc23)cc1: 26.4 µM
18. CC(=O)n1nc(-c2ccccc2)n(/N=C/c2ccc([N+](=O)[O-])o2)c1=O: 10.4 µM
19. COc1cc2[nH]c(-c3ccccc3)cc(=O)c2c(OC)c1OC: > 100 µM
20. CCOC(=O)C1(Cc2ccc3ccccc3c2)CCCCC(=O)N1 (stereo unspecified): > 100 µM
21. CC1c2ccccc2N=C2SC(=S)N3CCN=C3N21 (stereo unspecified): > 100 µM

----------
Test system: UACC-62 melanoma
ASSAY PROTOCOL: NCI tumour cell line growth inhibition, 48 h
ENDPOINT NAME: TGI

1) COc1ccc(C2Oc3c(c(O)cc4c3[C@H](c3ccc(O)cc3O)[C@H](O)C(c3ccc(O)c(O)c3)O4)C[C@@H]2O)cc1O (stereo not given in full): > 100 µM
2) COC(=O)[C@H](Cc1ccccc1)NC(=O)N(CCC#N)CCN(C(=O)N[C@@H](Cc1ccccc1)C(=O)OC)c1ccccc1: 13.6 µM
3) CCOP(=O)(OCC)OC1CC(n2cc(C)c(=O)n(C)c2=O)OC1CO[Si](C)(C)C(C)(C)C (stereo not given): > 100 µM
4) O=c1c2ccccc2sc2ccccc12: > 100 µM
5) C/C(=N\Nc1nc2ccccc2s1)c1ccc2ccccc2n1: > 100 µM
